Test system: U251 CNS
Assay: NCI tumour cell line growth inhibition, 48 h
observedProperty: TGI

>>> df
                                    compound    target  observedvalue
 0  COc1ccc(N=Nc2ccc3oc(=O)c(C(=O)Nc4ccc(OC)cc4)cc3c2)cc1  U251 CNS          30 µM
 1  CCC1OC(=O)C(C)C(OC2CC(C)(O)C(O)C(C)O2)C(C)C(O)C(C)(O)CC(C)C(=O)C(C)C(O)C1C (stereo unspecified)  U251 CNS       > 300 µM
 2  Cc1nn(C(=O)CC(=O)Nc2ccccc2Cl)c(C)c1N=Nc1ccccc1Cl  U251 CNS       > 100 µM
 3     Cc1c2cccc-2c(N(C)C)cc2c1[nH]c1ccccc12  U251 CNS        4.01 µM
 4   O=C(C(=O)n1ccc2ccccc21)c1c[nH]c2ccccc12  U251 CNS        > 10 µM
 5            COC[C@H](Cc1ccccc1)N=Cc1ccccc1  U251 CNS       > 100 µM
 6  O=C(c1ccccc1)c1cc(-c2ccccc2)c(-c2ccccc2)[nH]c(=O)c1=O  U251 CNS       > 100 µM
 7  CC(C)(C)C(=O)Cc1cc2c(cc1C(=O)O)S(=O)(=O)NC(C(C)(C)C)=C2  U251 CNS       > 100 µM
 8  C[N+]12C=CC=C1C(N1CCCC1)c1sc(-c3ccc(Cl)cc3)cc12 (stereo unspecified)  U251 CNS        24.5 µM
 9  Nc1c2ccccc2nc2ccc(C(=O)Nc3ccc(S(N)(=O)=O)cc3)cc12  U251 CNS       > 100 µM
10  CCC(c1ccc(N(C)C)cc1)C1NC(=S)NC1=O (stereo unspecified)  U251 CNS       > 100 µM
11  O=C1C2=C(Nc3cc([N+](=O)[O-])ccc3N2)OC1c1c[nH]c2ccc(COc3ccccc3)cc12 (stereo unspecified)  U251 CNS       > 100 µM
12       c1ccc(C2(c3cc4ccccc4[nH]3)OCCO2)cc1  U251 CNS       > 100 µM
13  O=C(CCc1nnc2s/c(=C\c3ccc(Cl)cc3Cl)c(=O)n12)Nc1cc(Cl)c(Cl)cc1Cl  U251 CNS       > 100 µM
14  CC(C)OC(=S)[S-].[Au+].c1ccc([PH+](c2ccccc2)c2ccccc2)cc1  U251 CNS        1.56 µM
15  COc1cc2c(cc1Nc1nc(Nc3ccsc3C(N)=O)c3cc[nH]c3n1)N(C(=O)CN(C)C)CCC2  U251 CNS        12.8 µM

---

Test system: MDA-MB-231 breast
Experiment: NCI tumour cell line growth inhibition, 48 h

compound	relationSymbol	TGI, µM
CCOc1c(OC)cc(CNNc2nccs2)cc1OC	>	100
COc1cc(OC)cc(N(C)Cc2cnc3nc(N)nc(N)c3c2C)c1	>	100
CC(=O)CC(=O)Nn1c(-c2cccs2)nc2ccc(I)cc2c1=O	=	63.7
COc1cccc2c1C(=N)c1c(O)c3c(c(O)c1C2=O)C[C@@](O)(C(C)=O)C[C@@H]3OC1CC(N)C(O)C(C)O1 (some centres not stated)	=	2.18
COc1cccc(C(=O)C(O)c2cccc(OC)c2OC)c1OC (configuration not stated)	>	100
N#Cc1ccc(/C=C2\Cc3ccccc3C2=O)cc1	>	100
O=C(/C=C\c1ccc(Cl)c(Cl)c1)c1ccccc1	=	25.2
O=c1n(CCO)nc2n1CCCN2	>	100
CCC1(CC)C(=O)N(C(=O)c2ccc(Cl)cc2)N(C(=O)c2ccccc2Cl)C1=O	>	100
CCCC1C2=C(C(=O)OC2=O)C2C(CC)CC3=C(C(=O)OC3=O)C12 (configuration not stated)	>	100
COc1ccc(N=Nc2ccc3oc(=O)c(C(=O)Nc4ccc(OC)cc4)cc3c2)cc1	=	88.1
CCN1CCc2sc3[nH]c(=S)n(C)c(=O)c3c2C1	>	100
Nc1cc(N)c2nc(-c3ccccc3)c(Sc3ccc(F)cc3)nc2c1	=	38
O=C(/C=C/CN1CCCCC1)Nc1cc2c(Nc3ccc(F)c(Cl)c3F)ncnc2cc1OCCOC(F)F	=	4.88
CN(C)CCCn1c2c(c3ccc([N+](=O)[O-])cc3c1=O)C(=O)c1ccccc1-2	=	38.1
CN(C)c1ccc(/C=C/C(=O)c2ccc(Nc3nc(Nc4ccc(F)cc4)nc(Nc4ccc(Cl)cc4)n3)cc2)cc1	=	73
CC(=O)OC1C(OC/C2=C/C3[C@@H](C(C)C)CC=C(C)[C@@H]3CC(OC(=O)/C=C/c3cn(C)cn3)[C@]3(C)C=C[C@@]2(O)O3)OCC(O)C1O (some centres not stated)	>	50

---

Readings of TGI for the listed compounds
System: HOP-62 NSCLC
Assay: NCI tumour cell line growth inhibition, 48 h
observedProperty: TGI (µM)

>>> print(df.to_string())
                                   compound        target  relationsymbol  observedvalue
0      Nc1nc(N)c2nn(-c3ccc(C(=O)O)cc3)nc2n1  HOP-62 NSCLC               >            100
1  N#Cc1c(-c2ccc(Cl)cc2)n([O-])c2ccccc2[n+]1=O  HOP-62 NSCLC               =           30.9
2  COc1cc2c(cc1C)NC(=O)/C2=C/c1c(Cl)n(C)c2ccccc12  HOP-62 NSCLC               =           29.5
3  CCOC(=O)C1(C/C=C\CBr)CCCCCCC1=O (stereo not given)  HOP-62 NSCLC               >            100
4  O=C(N/N=C/c1cc(-c2ccccc2Cl)c(-c2ccccc2Cl)o1)c1ccncc1  HOP-62 NSCLC               >            100
5      COC(=O)c1cc(CNCCc2c[nH]c3ccccc23)on1  HOP-62 NSCLC               >            100
6  N#CC1=C(N)Oc2c(ccc3ccccc23)C1c1ccccc1Cl (stereo not given)  HOP-62 NSCLC               =           17.3
7  COc1cc(C2C3=C(COC3=O)N(CCO)c3cc4c(cc32)CCC4)cc(OC)c1OC (stereo not given)  HOP-62 NSCLC               >           32.5
8  CCN(CC)CC(C(=O)Nc1c(C)cccc1C)/C(C)=N/NC(N)=S (stereo not given)  HOP-62 NSCLC               >            100
9  Oc1ccc(-c2nc(-c3ccc4oc5ccc(-c6[nH]c(-c7ccc(O)cc7)nc6-c6ccccc6)cc5c4c3)c(-c3ccccc3)[nH]2)cc1  HOP-62 NSCLC               =           42.3

---

Test system: LOX IMVI melanoma
Test: NCI tumour cell line growth inhibition, 48 h
Readings of TGI for the listed molecules

entrySmiles	TGI
COC(=O)[C@@H](C)C[C@H](Cc1ccccc1)NC(=O)c1cccc([C@@H](C[C@H](C(C)C)N(C)C(=O)[C@@H](NC(=O)[C@H]2CCCCN2C)C(C)C)OC(C)=O)n1	> 16.7 µM
COC(=O)C1(C(=O)OC)CC2=C(S(=O)(=O)c3ccccc3)C[C@@H](C#N)[C@H]2C1	> 100 µM
O=S(=O)(N1CCCCN(S(=O)(=O)C(F)(F)F)CCCN(S(=O)(=O)C(F)(F)F)CCCN(S(=O)(=O)C(F)(F)F)CCCCN(S(=O)(=O)C(F)(F)F)CCCN(S(=O)(=O)C(F)(F)F)CCC1)C(F)(F)F	> 100 µM

---

Readings of TGI for the listed compounds
Test system: SR leukemia
Assay: NCI tumour cell line growth inhibition, 48 h
observedProperty: TGI

>>> df
                                   compound       target  observedvalue
0  CC(C)(C)C(=O)Cc1cc2c(cc1C(=O)O)S(=O)(=O)NC(C(C)(C)C)=C2  SR leukemia       > 100 µM
1  C=C(Cl)C(Cl)(CBr)CCC(Cl)C(C)C (stereo not drawn)  SR leukemia      > 54.7 µM
2                      CCCCc1ccc(C(N)=O)nc1  SR leukemia       > 100 µM

---

Tested on: 786-0 renal
Assay: NCI tumour cell line growth inhibition, 48 h

compound	TGI
O=c1[nH]c2cccccc-2c1-c1nc2ccccc2[nH]1	41 µM
Cc1ccc(-c2c(C#N)c(O)n(NS(=O)(=O)c3ccccc3)c(=O)c2C#N)cc1	> 100 µM
CC(C)CCC[C@@H](C)[C@H]1CC[C@H]2[C@@H]3CC=C4CC(OCCCCN(O)CCCSC5OC(CO)C(O)C(O)C5O)CC[C@]4(C)[C@H]3CC[C@]12C (some centres undefined)	32.5 µM
CCOC(=O)c1ccccc1NC(c1ccccc1)c1ccc2cccnc2c1O (centres undefined)	> 100 µM
O=C1CSC(c2ccc(Cl)cc2)N1c1ccc(-n2c(-c3ccccc3)nc3ccccc3c2=O)cc1 (centres undefined)	> 100 µM
N#C/C(=C/NC(=S)Nc1ccc(S(N)(=O)=O)cc1)C(N)=O	> 100 µM
CN(C)c1ccc(/C=C/C(=O)c2ccc(Nc3nc(Nc4ccc(F)cc4)nc(Nc4ccc(Cl)cc4)n3)cc2)cc1	14.1 µM
Cn1c(N)cc(=O)nc1N	> 100 µM
O=C(O)CCCCCNC(=O)CCC(CN(CC(=O)OCc1ccccc1)CC(=O)OCc1ccccc1)N(CC(=O)OCc1ccccc1)CC(=O)OCc1ccccc1 (centres undefined)	34.1 µM
O=C(Cc1nc2ccccc2s1)C(=O)Nc1ccccc1C(F)(F)F	> 100 µM
Clc1ccc(CCN2CCN(CCCc3ccccc3)CC2)cc1Cl	30.2 µM
COc1ccccc1C1C(Cl)C(=O)N1NC(=O)Cc1ccccc1 (centres undefined)	> 100 µM
COC(=O)[C@H]1ON2O[C@H](OC3CCCC[C@@H]3c3ccccc3)C[C@@H]3CC[C@H]1[C@@]32C (some centres undefined)	> 100 µM
COc1ccc2nccc(C3OC(=O)N4CCC(=O)CC34)c2c1 (centres undefined)	> 100 µM
